IC50 values by entry
# System: A549
# test_summary: Cytotoxicity against human A549 cells after 72 hrs by MTT assay
# Format: functional, cell-based
# particulars: A549, 72 h
Please state the figure in µM; there is no need to write the unit.

>>> assay_result("[O-][S+](CCCCCN=C=S)Cc1ccccc1 (stereo unspecified)")
6.21
>>> assay_result("O=[N+]([O-])c1ccc(C[S+]([O-])CCCCN=C=S)cc1 (stereo unspecified)")
14.3
>>> assay_result("S=C=NCCCCSCc1ccccc1")
51.3

What measured IC50 goes with O=S(=O)(CCCCN=C=S)Cc1ccccc1 ?
8.89

What measured IC50 goes with [O-][S+](CCCN=C=S)Cc1ccccc1 (stereo unspecified) ?
11.8

What measured IC50 goes with [O-][S+](CCCCCCN=C=S)Cc1ccccc1 (stereo unspecified) ?
14.7

What measured IC50 goes with CC(C)[S+]([O-])CCCCN=C=S (stereo unspecified) ?
10.4

What measured IC50 goes with CC(C)[S+]([O-])CCCN=C=S (stereo unspecified) ?
16.7

###

pIC50 values by entry
# Tested on: A549
# test_summary: Cytotoxicity against human A549 cells after 72 hrs by MTT assay
# Assay type: functional, cell-based
# particulars: A549, 72 h
Keep in mind that pIC50 stands for -log10 of concentration in molar terms.

These solved cases illustrate the format of a correct answer.
>>> assay_result("CC[S+]([O-])CCCCN=C=S (stereo not drawn)")
4.99
>>> assay_result("[O-][S+](CCCCN=C=S)c1ccccc1 (stereo not drawn)")
4.62

What measured pIC50 goes with [O-][S+](CCCCN=C=S)C1CCCC1 (stereo not drawn) ?
5.00

What measured pIC50 goes with [O-][S+](CCCCN=C=S)Cc1ccccn1 (stereo not drawn) ?
5.08

What measured pIC50 goes with [O-][S+](CCCCN=C=S)Cc1ccco1 (stereo not drawn) ?
5.25

What measured pIC50 goes with [O-][S+](CCCCN=C=S)CCc1ccccc1 (stereo not drawn) ?
4.99

What measured pIC50 goes with CC(C)[S+]([O-])CCCCCN=C=S (stereo not drawn) ?
5.11

What measured pIC50 goes with CCC[S+]([O-])CCCCN=C=S (stereo not drawn) ?
4.97

What measured pIC50 goes with CC(C)C[S+]([O-])CCCCN=C=S (stereo not drawn) ?
5.04

What measured pIC50 goes with COc1ccc(C[S+]([O-])CCCCN=C=S)cc1 (stereo not drawn) ?
4.49

What measured pIC50 goes with [O-][S+](CCCCN=C=S)Cc1cccs1 (stereo not drawn) ?
5.08

What measured pIC50 goes with C[S+]([O-])CCCCN=C=S (stereo not drawn) ?
4.66

What measured pIC50 goes with [O-][S+](CCCCN=C=S)Cc1ccccc1 (stereo not drawn) ?
5.13
